Biological target: T1, FLRT3 (antigen of the binning assay of Table 2) (Homo sapiens (Human), UniProt Q9NZU0 29-528, limits assumed)
T1 construct: the whole entry for FLRT3 is named
T1 sequence: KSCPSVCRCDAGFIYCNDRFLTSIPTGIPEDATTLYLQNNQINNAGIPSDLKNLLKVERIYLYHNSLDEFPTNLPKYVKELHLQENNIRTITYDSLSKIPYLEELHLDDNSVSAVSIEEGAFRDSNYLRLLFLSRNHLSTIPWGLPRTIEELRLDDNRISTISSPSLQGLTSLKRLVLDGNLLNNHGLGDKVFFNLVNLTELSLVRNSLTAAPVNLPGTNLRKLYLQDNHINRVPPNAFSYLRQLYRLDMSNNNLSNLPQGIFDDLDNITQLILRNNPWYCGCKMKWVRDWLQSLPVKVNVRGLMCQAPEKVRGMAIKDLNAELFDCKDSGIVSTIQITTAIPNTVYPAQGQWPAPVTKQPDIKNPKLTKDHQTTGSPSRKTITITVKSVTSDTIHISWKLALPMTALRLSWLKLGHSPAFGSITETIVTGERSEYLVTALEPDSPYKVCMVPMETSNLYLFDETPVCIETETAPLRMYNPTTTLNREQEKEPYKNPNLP
Test: antibody binning matrix (Table 2); row '1X Kinetic' (no first antibody), column antibody taken as binder
quantityKind: binning response (no name or unit printed)

These recorded examples may help you get a feel for the data.
[[record]]
binder = "2F7 (antibody, V domains shown, Variable domains only) VH: EVQLQQSGPELVKPGASVKMSCKASGYTFTDYYMNWVKQSHGKSLEWIGRVYPSNSGASYNQKFKGKATLTVDKSLSTAYMQLNSLTSEDSAVYYCASSYYFDYWGQGTTLTVSS VL: DIVMTQSHKFMSTSIGDRVNITCKASQDVGTAVAWFQQKPGQSPKLLIYWASTRHTGVPDRFTGSGSGTDFTLTISNVQSEDLADYFCQQYSSYPTFGAGTTLELK"
testresult = 0.99

[[record]]
binder = "1H5 (antibody, V domains shown, Variable domains only) VH: EVQLQQSGPELVKPGASVKMSCKASGYTFTDYYMNWVKQSHGKSLEWIGRVNPSNGVTSYNQKFKGKAALTVDKSLSTAYMQLNSLTSEDSAVYYCARDFLMDYWGQGTSVTVSS VL: DIVMTQSHKFMSTSVGDRVTITCKASQDVGTAVAWYQQKPGQSPKLLIYWASTRHTGVPDRFTGSGSGTDFTLTISNVQSEDLADYFCQQYSSYPTFGGGTKLEIK"
testresult = 0.947

[[record]]
binder = "14B7 (antibody, V domains shown, Variable domains only; also called FLRT3 mAb 14B7; antibody 14B7) VH: QVQLQQSGPELVKPGASVNISCKASGYAFGNSWMNWVKQRPGKGLEWIGWIYPGDGNANYNGKFKGKATLTADKSSSTAYMQLSSLTSEDSAVYFCARALYDYDGWFAYWGQGTLVTVSA VL: DIQMNQSPSSLSASLGDTITIACRASQNIDIWLSWYQQKPGSIPKLLIYKASNLHTGVPSRFSGSGSGTDFTLTISSLQPEDIATYYCLQGQSFPFTFGSGTKLEIK"
testresult = 1.73


Here is another binder to look at.
## Task // query binning response (no name or unit printed) value for entry 14D3 (antibody, V domains shown, Variable domains only) VH: EIQLQQSGAELVKPGASVKISCKASGYSFTGYNMNWVKQSHGKSLEWIGNITPYYGSASYNQKFKGKATLTVDKSSSTAYMQLNSLTSEDSAVYYCARRSYDYDENAMDYWGQGTSVTVSS VL: DIVMTQSHKFMSTSVGDRVSITCKASQDLSTAVAWYQQKPGQSPKLLIYSASYRYTGVPDRFTGSGSGTDFTFTISSVQAEDLAVYYCQQHYSTPLTFGAGTKLELK
## Result 0.947
